src = the supplement of paper PMC9112550

# Test system: Escherichia coli TOP10;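 further: peptides expressed intracellularly from a pBAD plasmid library in pooled LB shake-flask culture, induced with 0.3% L-arabinose, DNA abundance read by NGS, three biological replicates, DESeq2 with apeglm shrinkage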
# Experiment notes: shrunken log2 fold change of peptide-encoding DNA abundance (4.5 h post-induction vs induction); higher = less antimicrobial activity (less host growth inhibition)
# Experimental context: time post-induction: 4.5 h; library: site-saturation at positions 5, 18, 19, 20
Readout name: shrunken log2 fold change

{"columns": ["Monomer sequence", "Readout name", "Value"],
 "data": [
  ["RRIRARPPRLPRPRPRPGKIPRP", "shrunken log2 fold change", 0.0623],
  ["RRIRCRPPRLPRPRPRPLFPPRP", "shrunken log2 fold change", -0.2],
  ["RRIRARPPRLPRPRPRPHPAPRP", "shrunken log2 fold change", 0.478],
  ["RRIRIRPPRLPRPRPRPEMQPRP", "shrunken log2 fold change", 0.128],
  ["RRIRIRPPRLPRPRPRPQQIPRP", "shrunken log2 fold change", -0.552],
  ["RRIRGRPPRLPRPRPRPLIYPRP", "shrunken log2 fold change", 0.105],
  ["RRIRPRPPRLPRPRPRPVHEPRP", "shrunken log2 fold change", 0.497],
  ["RRIRRRPPRLPRPRPRPQAEPRP", "shrunken log2 fold change", 0.0907],
  ["RRIRARPPRLPRPRPRPPFVPRP", "shrunken log2 fold change", 1.42],
  ["RRIRNRPPRLPRPRPRPSGAPRP", "shrunken log2 fold change", -0.0216],
  ["RRIRMRPPRLPRPRPRPPREPRP", "shrunken log2 fold change", 1.19],
  ["RRIRTRPPRLPRPRPRPDKTPRP", "shrunken log2 fold change", -0.108],
  ["RRIRARPPRLPRPRPRPYKDPRP", "shrunken log2 fold change", -0.348],
  ["RRIRNRPPRLPRPRPRPIFFPRP", "shrunken log2 fold change", 0.0887],
  ["RRIRLRPPRLPRPRPRPRDNPRP", "shrunken log2 fold change", -0.127],
  ["RRIRQRPPRLPRPRPRPPHGPRP", "shrunken log2 fold change", 1.06]
]}
